Biological target: T1, human MSLN-R1-his protein (human, UniProt Q13421 296-390)
T1 construct: Region 1 of human mesothelin, made in HEK293E cells, His-tagged; also called human MSLN-R1 protein; hMSLN-R1-his; not shown: His tag
T1 chain: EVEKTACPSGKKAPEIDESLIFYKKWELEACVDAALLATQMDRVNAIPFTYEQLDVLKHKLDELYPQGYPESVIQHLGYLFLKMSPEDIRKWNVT
Assay: ELISA on coated MSLN-R1; antibody 0.001 nM
QUANTITY_KIND: OD450 (OD450)
Please state the figure in OD450; there is no need to write the unit.

Problem: I am curious: what OD450 value has been reported for S009-F8-24.14 (antibody, human IgG1, kappa, V domains shown) VH: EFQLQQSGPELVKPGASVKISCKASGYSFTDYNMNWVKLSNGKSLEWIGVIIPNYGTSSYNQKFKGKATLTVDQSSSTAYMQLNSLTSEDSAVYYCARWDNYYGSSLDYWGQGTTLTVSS VL: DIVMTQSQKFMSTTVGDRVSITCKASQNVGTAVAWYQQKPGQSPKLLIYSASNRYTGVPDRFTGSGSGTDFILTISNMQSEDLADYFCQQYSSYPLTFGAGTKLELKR ?
Result: 0.07

Problem: Would you kindly share the measured OD450 for S009-F8-28.23 (antibody, human IgG1, kappa, V domains shown) VH: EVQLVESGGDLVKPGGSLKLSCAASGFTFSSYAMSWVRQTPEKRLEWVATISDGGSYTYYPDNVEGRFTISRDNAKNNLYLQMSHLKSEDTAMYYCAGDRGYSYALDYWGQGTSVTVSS VL: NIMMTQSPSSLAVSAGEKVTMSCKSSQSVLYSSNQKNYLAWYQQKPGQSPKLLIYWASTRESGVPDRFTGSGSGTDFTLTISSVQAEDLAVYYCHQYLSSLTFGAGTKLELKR ?
Result: 0.05

Problem: Given the binder S009-F8-32.3 (antibody, human IgG1, kappa, V domains shown) VH: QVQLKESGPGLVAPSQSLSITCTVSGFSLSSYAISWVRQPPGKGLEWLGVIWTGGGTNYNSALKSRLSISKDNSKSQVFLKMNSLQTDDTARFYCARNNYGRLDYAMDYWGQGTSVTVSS VL: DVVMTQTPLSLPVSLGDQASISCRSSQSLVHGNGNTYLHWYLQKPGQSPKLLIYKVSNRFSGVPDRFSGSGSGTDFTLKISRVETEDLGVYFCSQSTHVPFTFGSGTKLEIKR , what is its reported OD450?
Result: 0.11
